systemTested: HLA-A*2401 (human)
procedureSummary: inhibition of 125I probe peptide binding to purified HLA; IC50 standard/IC50 test
observationType: relative binding ratio
Could you keep your reply to the number by itself?

Solved entries (count: 4):
EYHADGGKVPI [HER2/neu 876-886]    -0.0003
RFTHQSDVW [HER2/neu 898-906]    0.011
AWPDSLPDL [HER2/neu 414-422]    0.0041
AYSLTLQGL [HER2/neu 440-448]    0.13

Qu. relative binding ratio lookup needed for SWLGLRSLREL [HER2/neu 451-461] , thanks.
Ans. 0.0036

Qu. Give its relative binding ratio value. Item: AFGTVYKGIW [HER2/neu 730-739]
Ans. 0.001

Qu. Quick check: relative binding ratio of TYLPTNASLSF [HER2/neu 63-73] ?
Ans. 8.9
